Assay: Solubility in PBS
Assay type: physicochemical
measured-property: Solubility (µM)
The reply should be a number in µM, with the unit left off.

Kindly indicate its recorded Solubility. Item: CC(=O)N1CCC[C@]12CC=CCCCC1(CCCC=CCCCOC(=O)N3CC[C@@](C(=O)N[C@@H](Cc4ccccc4Cl)C(=O)N[C@@H](Cc4csc5ccccc45)C(=O)N[C@@H](CCC(N)=O)C(N)=O)(C3)NC(=O)[C@H](CC(C)C)NC(=O)[C@H](Cc3ccccc3)NC(=O)[C@H](C)NC(=O)[C@H](C)NC(=O)[C@H](CCC(=O)O)NC(=O)[C@H](CC(=O)O)NC1=O)NC(=O)[C@H](CC1CCCCC1)NC(=O)[C@H](CC(=O)O)NC2=O (stereo partly drawn) [I-1077]
10

Kindly indicate its recorded Solubility. Item: CC(=O)N1CCC[C@]12CC=CCCCC1(CCCC=CCCCCCC[C@@](C)(C(=O)N[C@@H](Cc3ccsc3)C(=O)N[C@@H](Cc3csc4ccccc34)C(=O)N[C@@H](CCC(N)=O)C(N)=O)NC(=O)[C@H](CC(N)=O)NC(=O)[C@H](Cc3ccccc3)NC(=O)[C@H](C)NC(=O)[C@H](C)NC(=O)[C@H](CCC(=O)O)NC(=O)[C@H](CC(=O)O)NC1=O)NC(=O)[C@H](C)NC(=O)[C@H](CC(=O)O)NC2=O (stereo partly drawn) [I-519]
50

Kindly indicate its recorded Solubility. Item: CC(=O)N1CCC[C@]12CC=CCCCC1(CCCC=CCCCCCC[C@@](C)(C(=O)N[C@@H](Cc3ccsc3)C(=O)N[C@@H](Cc3csc4ccccc34)C(=O)N[C@@H](Cc3c[nH]cn3)C(N)=O)NC(=O)[C@H](CC(N)=O)NC(=O)[C@H](Cc3ccccc3)NC(=O)[C@H](C)NC(=O)[C@H](C)NC(=O)[C@H](CCC(=O)O)NC(=O)[C@H](CC(=O)O)NC1=O)NC(=O)[C@H](C)NC(=O)[C@H](CC(=O)O)NC2=O (stereo partly drawn) [I-516]
42

###

Assay: CHI Log D procedure
Format: physicochemical
Conditions: pH 7.4
I'd appreciate it if you could supply CHI Log D values for the items below.

Kindly indicate its recorded CHI Log D. Item: CC[C@H](C)[C@@H]1NC(=O)[C@H](CC(=O)O)NC(=O)[C@]2(CC=CCCCC3(CCCC=CCCCCCC[C@@](C)(C(=O)N[C@@H](Cc4ccccc4)C(=O)N[C@@H](Cc4csc5ccccc45)C(=O)N[C@@H](CCC(N)=O)C(=O)N[C@@H](CCCCNC(=O)CN=[N+]=[N-])C(N)=O)NC(=O)[C@H](CCC(N)=O)NC(=O)[C@H](Cc4ccccc4)NC(=O)[C@H](C)NC(=O)[C@H](C)NC(=O)[C@H](CCC(=O)O)NC(=O)[C@H](CC(=O)O)NC3=O)NC1=O)CCCN2C(C)=O (some centres unmarked) [I-596]
2.373

Kindly indicate its recorded CHI Log D. Item: CC(=O)N[C@@H](Cc1ccccc1)C(=O)N[C@@H](CC(=O)O)C(=O)N[C@@H](C)C(=O)N[C@]1(C)CCCCCCC=CCOC(=O)N2CC[C@@](C(=O)N[C@@H](Cc3ccccc3)C(=O)N[C@@H](Cc3c[nH]c4ccccc34)C(=O)N[C@@H](CCC(N)=O)C(N)=O)(C2)NC(=O)[C@H](C(C)C)NC(=O)[C@H](Cc2cccnc2)NC(=O)[C@H](C)NC(=O)[C@H](C)NC(=O)[C@H](CC(=O)O)NC(=O)[C@H](CC(=O)O)NC1=O (single isomer, unassigned)
1.239

###

Molecular target: full-length beta-Catenin (Uniprot ID P35222) (Homo sapiens, UniProt P35222)
Construct: 10 nM full-length beta-Catenin (Uniprot ID P35222)
Sequence (P35222 1-781): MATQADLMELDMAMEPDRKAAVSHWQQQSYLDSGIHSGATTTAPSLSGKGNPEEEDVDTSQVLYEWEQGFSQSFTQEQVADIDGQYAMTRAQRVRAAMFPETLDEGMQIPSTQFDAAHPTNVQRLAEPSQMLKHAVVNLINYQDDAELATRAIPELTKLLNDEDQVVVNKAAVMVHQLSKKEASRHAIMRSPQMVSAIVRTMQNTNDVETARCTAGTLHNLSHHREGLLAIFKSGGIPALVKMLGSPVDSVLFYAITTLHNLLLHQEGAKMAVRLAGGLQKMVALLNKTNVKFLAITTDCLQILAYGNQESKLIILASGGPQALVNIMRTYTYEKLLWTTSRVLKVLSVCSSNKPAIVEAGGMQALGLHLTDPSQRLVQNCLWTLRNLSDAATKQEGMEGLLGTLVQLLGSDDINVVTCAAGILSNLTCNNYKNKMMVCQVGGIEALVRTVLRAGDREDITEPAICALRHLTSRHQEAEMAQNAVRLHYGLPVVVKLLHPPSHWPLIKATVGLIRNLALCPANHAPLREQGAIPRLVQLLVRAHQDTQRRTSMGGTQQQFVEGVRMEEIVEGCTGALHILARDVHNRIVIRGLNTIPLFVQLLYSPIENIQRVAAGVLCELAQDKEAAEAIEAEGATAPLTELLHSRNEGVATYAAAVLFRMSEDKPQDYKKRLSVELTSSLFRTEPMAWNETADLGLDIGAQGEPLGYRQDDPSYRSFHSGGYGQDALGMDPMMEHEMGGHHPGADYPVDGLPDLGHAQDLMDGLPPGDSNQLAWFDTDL
Experiment: Fluorescence polarization IC50 (beta-catenin / 5FAM-TCF4 10-53 competition)
Format: binding
Details: read-out: FP EC50
I'd appreciate it if you could supply pIC50 values for the items below.
pIC50 field: float, defined as -log10 of concentration (mol/L).

Please look at CC(=O)N1CCC[C@]12CC=CCCCC1(CCCC=CCCCCCC[C@@](C)(C(=O)N[C@@H](Cc3ccccc3)C(=O)N[C@@H](Cc3csc4ccccc34)C(=O)N[C@@H](CCC(N)=O)C(N)=O)NC(=O)[C@H](CC(N)=O)NC(=O)[C@H](Cc3ccccc3)NC(=O)[C@H](C)NC(=O)[C@H](C)NC(=O)[C@H](CC(=O)O)NC(=O)[C@H](CC(=O)O)NC1=O)NC(=O)[C@H](C(C)C)NC(=O)[C@H](CC(=O)O)NC2=O (stereo partly drawn) [I-567] and tell me its recorded pIC50 on full-length beta-Catenin (Uniprot ID P35222) (Homo sapiens, UniProt P35222).
7.43

Please look at CC(=O)N1CCC[C@]12CC=CCCCC1(CCCC=CCCCCCC[C@@](C)(C(=O)N[C@@H](Cc3ccccc3)C(=O)N[C@@H](Cc3csc4ccccc34)C(N)=O)NC(=O)[C@H](CC(N)=O)NC(=O)[C@H](Cc3ccccc3)NC(=O)[C@H](C)NC(=O)[C@H](C)NC(=O)[C@H](CCC(=O)O)NC(=O)[C@H](CC(=O)O)NC1=O)NC(=O)[C@H](CC(C)C)NC(=O)[C@H](CC(=O)O)NC2=O (stereo partly drawn) [I-625] and tell me its recorded pIC50 on full-length beta-Catenin (Uniprot ID P35222) (Homo sapiens, UniProt P35222).
6.92

Please look at CC[C@@H]1NC(=O)[C@H](CC(=O)O)NC(=O)[C@]2(CC=CCCCC3(CCCC=CCCCCCC[C@@](C)(C(=O)N[C@@H](Cc4ccccc4)C(=O)N[C@@H](Cc4csc5ccccc45)C(=O)N[C@@H](CCC(N)=O)C(N)=O)NC(=O)[C@H](CC(N)=O)NC(=O)[C@H](Cc4ccccc4)NC(=O)[C@H](C)NC(=O)[C@H](C)NC(=O)[C@H](CC(=O)O)NC(=O)[C@H](CC(=O)O)NC3=O)NC1=O)CCCN2C(C)=O (stereo partly drawn) [I-573] and tell me its recorded pIC50 on full-length beta-Catenin (Uniprot ID P35222) (Homo sapiens, UniProt P35222).
7.44
